Reported viability, T/C values for the following compounds.
# Tested on: 876862-298-R-J1-PDC complex spheroids, viability % test/control
# Procedure summary: Anticancer human tumor 876862-298-R-J1-PDC patient-derived endometrial carcinoma cell line growth inhibition [CLK]
# Experimental context: second compound 1 µM; first compound 0.316 µM; stronger effect = lower value
Supply the numeric figure in %, leaving out any unit text.

Take a look at these entries with their results.
Input: Given C=CC(=O)N1CCN(c2nc(=O)n(-c3c(C)ccnc3C(C)C)c3nc(-c4c(O)cccc4F)c(F)cc23)C(C)C1 (stereo not given) + CNC(=O)c1ccc(Nc2nc(OC3CCCC3)c3c(-c4ccc5nc(C)oc5c4)c[nH]c3n2)c(OC)c1 , state its recorded viability, T/C.
Output: 30.1

Input: Same question for CC1(C)CCC(CN2CCN(c3ccc(C(=O)NS(=O)(=O)c4ccc(NCC5CCOCC5)c([N+](=O)[O-])c4)c(Oc4cnc5[nH]ccc5c4)c3)CC2)=C(c2ccc(Cl)cc2)C1 + CN1CCN(c2cc(C(=O)Nc3cc4cc(-c5cnn(C)c5)ccc4cn3)ccn2)CC1 please.
Output: 0.52

Input: And then CC1(C)CCC(CN2CCN(c3ccc(C(=O)NS(=O)(=O)c4ccc(NCC5CCOCC5)c([N+](=O)[O-])c4)c(Oc4cnc5[nH]ccc5c4)c3)CC2)=C(c2ccc(Cl)cc2)C1 + CNC(=O)c1ccc(Nc2nc(OC3CCCC3)c3c(-c4ccc5nc(C)oc5c4)c[nH]c3n2)c(OC)c1 , what is it?
Output: 32.3

Input: Follow-up entry: Nc1ccccc1NC(=O)c1ccc(CNC(=O)OCc2cccnc2)cc1 + CNC(=O)c1ccc(Nc2nc(OC3CCCC3)c3c(-c4ccc5nc(C)oc5c4)c[nH]c3n2)c(OC)c1
Output: 32.5

***
Input: Please report the recorded viability, T/C for CC(CO)NC(=O)c1cc(-c2ccc(Cl)cc2)nn(-c2cnn(C)c2)c1=O (stereo not given) + CNC(=O)c1ccc(Nc2nc(OC3CCCC3)c3c(-c4ccc5nc(C)oc5c4)c[nH]c3n2)c(OC)c1 .
Output: 38.9

====

# Test system: 876862-298-R-J1-PDC complex spheroids, viability % test/control
# Procedure summary: Anticancer human tumor 876862-298-R-J1-PDC cell line growth inhibition [CLK];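 further: spheroids exposed to drugs for 7 days before readout; 100% = DMSO vehicle control wells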
# Experimental context: second compound 0.0316 µM; first compound 0.316 µM; stronger effect = lower value
viability, T/C strictly less than 50% = criterion met. Otherwise criterion not met.

Input: Determine if CC1COCCN1c1cc(C2(S(C)(=N)=O)CC2)nc(-c2ccnc3[nH]ccc23)n1 (stereo not given) + CNC(=O)c1ccc(Nc2nc(OC3CCCC3)c3c(-c4ccc5nc(C)oc5c4)c[nH]c3n2)c(OC)c1 shows viability, T/C strictly lower than 50%.
Output: criterion not met

Input: Next: Nc1ccn(C2OC(CO)C(O)C2(F)F)c(=O)n1 (stereo not given) + CN1CCN(c2cc(C(=O)Nc3cc4cc(-c5cnn(C)c5)ccc4cn3)ccn2)CC1
Output: criterion met

Input: Note, next up: C=CC(=O)N1CCN(c2nc(=O)n(-c3c(C)ccnc3C(C)C)c3nc(-c4c(O)cccc4F)c(F)cc23)C(C)C1 (stereo not given) + CNC(=O)c1ccc(Nc2nc(OC3CCCC3)c3c(-c4ccc5nc(C)oc5c4)c[nH]c3n2)c(OC)c1
Output: criterion not met

Input: And the next one, C=CC(=O)N1CCN(c2nc(=O)n(-c3c(C)ccnc3C(C)C)c3nc(-c4c(O)cccc4F)c(F)cc23)C(C)C1 (stereo not given) + CN1CCN(c2cc(C(=O)Nc3cc4cc(-c5cnn(C)c5)ccc4cn3)ccn2)CC1 ?
Output: criterion not met

Input: # iterate: CC(=O)O[C@H]1C(=O)[C@@]2(C)[C@H]([C@H](OC(=O)c3ccccc3)[C@]3(O)C[C@H](OC(=O)[C@H](O)[C@@H](NC(=O)c4ccccc4)c4ccccc4)C(C)=C1C3(C)C)[C@]1(OC(C)=O)CO[C@@H]1C[C@@H]2O + CNC(=O)c1ccc(Nc2nc(OC3CCCC3)c3c(-c4ccc5nc(C)oc5c4)c[nH]c3n2)c(OC)c1
Output: criterion met

Input: Input O=c1[nH]cc(F)c(=O)[nH]1 + CN1CCN(c2cc(C(=O)Nc3cc4cc(-c5cnn(C)c5)ccc4cn3)ccn2)CC1
Output: criterion not met

Input: Let us now turn to CCN1CCN(Cc2ccc(Nc3ncc(F)c(-c4cc(F)c5nc(C)n(C(C)C)c5c4)n3)nc2)CC1 + CN1CCN(c2cc(C(=O)Nc3cc4cc(-c5cnn(C)c5)ccc4cn3)ccn2)CC1
Output: criterion not met

Input: What do you get for COc1c(OCCCN2CCOCC2)ccc2c3n(c(=NC(=O)c4cnc(N)nc4)nc12)CCN3 + CN1CCN(c2cc(C(=O)Nc3cc4cc(-c5cnn(C)c5)ccc4cn3)ccn2)CC1 ?
Output: criterion met

Input: CCCS(=O)(=O)Nc1ccc(F)c(C(=O)c2c[nH]c3ncc(-c4ccc(Cl)cc4)cc23)c1F + CN1CCN(c2cc(C(=O)Nc3cc4cc(-c5cnn(C)c5)ccc4cn3)ccn2)CC1 , same question.
Output: criterion not met

Kindly consider the entry below.
Input: Confirm or reject: viability, T/C of C=C(F)C(=O)N1CCN(c2nc(OCC3CCCN3C)nc3c2CCN(c2cccc4cccc(Cl)c24)C3)CC1CC#N (stereo not given) + CN1CCN(c2cc(C(=O)Nc3cc4cc(-c5cnn(C)c5)ccc4cn3)ccn2)CC1 lies strictly below 50%
Output: criterion not met
